- TESTED TARGET: hERG channel (Homo sapiens)
- Construct: expressed in transfected cells; host or cells: CHO (Chinese hamster ovary), CHOhERG
- Sequence (Q12809 whole entry): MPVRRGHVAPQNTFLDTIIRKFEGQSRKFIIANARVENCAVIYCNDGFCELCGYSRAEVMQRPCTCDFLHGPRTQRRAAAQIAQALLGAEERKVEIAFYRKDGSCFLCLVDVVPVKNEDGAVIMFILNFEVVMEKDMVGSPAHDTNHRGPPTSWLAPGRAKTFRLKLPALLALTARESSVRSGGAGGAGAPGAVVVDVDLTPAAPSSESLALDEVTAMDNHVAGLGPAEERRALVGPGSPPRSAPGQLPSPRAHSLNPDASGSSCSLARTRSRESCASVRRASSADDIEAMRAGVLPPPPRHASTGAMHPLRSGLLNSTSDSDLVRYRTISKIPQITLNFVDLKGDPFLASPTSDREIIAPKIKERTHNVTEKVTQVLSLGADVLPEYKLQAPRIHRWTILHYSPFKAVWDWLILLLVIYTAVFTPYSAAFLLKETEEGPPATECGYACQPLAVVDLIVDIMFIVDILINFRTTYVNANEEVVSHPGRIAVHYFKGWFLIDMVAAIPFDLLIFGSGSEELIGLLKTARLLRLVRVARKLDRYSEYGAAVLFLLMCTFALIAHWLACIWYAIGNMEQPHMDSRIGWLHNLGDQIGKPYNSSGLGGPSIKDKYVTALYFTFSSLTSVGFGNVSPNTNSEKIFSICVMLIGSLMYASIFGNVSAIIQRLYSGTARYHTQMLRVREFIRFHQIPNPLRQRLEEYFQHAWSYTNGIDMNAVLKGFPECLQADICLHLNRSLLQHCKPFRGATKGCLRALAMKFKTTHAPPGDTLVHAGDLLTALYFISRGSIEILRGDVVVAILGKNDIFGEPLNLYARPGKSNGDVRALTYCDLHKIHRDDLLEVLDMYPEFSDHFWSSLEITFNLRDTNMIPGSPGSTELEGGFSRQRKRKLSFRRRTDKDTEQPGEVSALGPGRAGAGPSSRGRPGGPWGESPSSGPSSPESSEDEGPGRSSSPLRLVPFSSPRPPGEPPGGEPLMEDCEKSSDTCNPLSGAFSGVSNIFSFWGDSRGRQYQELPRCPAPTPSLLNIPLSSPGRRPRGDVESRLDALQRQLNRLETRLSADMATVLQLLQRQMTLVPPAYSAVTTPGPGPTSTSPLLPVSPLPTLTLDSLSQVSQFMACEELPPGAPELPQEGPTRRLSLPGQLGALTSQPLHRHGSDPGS
- ASSAY OVERVIEW: hERG channel inhibition assay (patch-clamp, CHOhERG cells)
- Type: cell-based
- EXPERIMENTAL CONTEXT: safety ratio
Measured hERG IC20/TLR9 IC50 values are reported for all entries that follow.

Consider the following illustrative entries.
compound="Cc1cc(N2CCNCC2)cnc1N1CCN2[C@@H](C1)CN(c1cc(=O)n(C)c3ncccc13)C[C@H]2C [Example 93]" tested_target="hERG channel (Homo sapiens)" result=>53
compound="C[C@@H]1CN(c2ccc(C#N)n3ncc(F)c23)C[C@@H]2CN(Cc3ccc4c(c3)CNCC4)CCN21 [Example 69]" tested_target="hERG channel (Homo sapiens)" result=>70
compound="[2H]c1ccc2c(N3C[C@@H]4CN(Cc5ccc(N6C[C@@H]7C[C@H]6CN7)nc5C)CCN4[C@H](C)C3)ccc(C#N)c2n1 [Example 92]" tested_target="hERG channel (Homo sapiens)" result=>294

The compound [2H]c1ccc2c(N3C[C@@H]4CN(c5ccc6c(n5)CCNC6)CCN4[C@@H](C)C3)ccc(C#N)c2n1 [Example 121] , when measured on hERG channel (Homo sapiens), yielded hERG IC20/TLR9 IC50 of >117

Form field, hERG IC20/TLR9 IC50 with hERG channel (Homo sapiens), item Cc1cc(N2CCNCC2)ncc1N1CCN2CCN(c3ccc(C#N)c4ncccc34)CC2C1 (centres unmarked) [Example 38] : >108
